# Particulars: 313.15 K; 100 kPa; Liquid; Capillary tube (Ostwald / Ubbelohde) method
Parameter: viscosity (mPa·s)
Your answer is read as mPa·s, so omit the unit and give the number.

Which viscosity is reported for this molecule? CCCC(=O)[O-].CCCC[NH3+] [n-butylammonium butanoate] 338.47

I would be grateful if you could share the reported viscosity for CCC(=O)[O-].CCCC[NH3+] [butylammonium propanoate] . 280.47

Field request: viscosity | item: CC(=O)O.CCCCN [butylammonium acetate] 222.26

Next up:
Consider the molecule CCCC[NH3+].O=C[O-] [butylammonium formate] and give its measured viscosity. 57.07
